# study target: T1, Biotin-huCGRPaSA (human, not fully specified; biotin (position not given))
# T1 construct: exact construct ('aSA') not explained; also called Biotin CGRPaSA; full-length (1-37) CGRP
# T1 peptide: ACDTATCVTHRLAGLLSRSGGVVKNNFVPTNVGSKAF
# method notes: ELISA, supernatant; relative to chimeric C245
Below, each of the binders is paired with its reported Relative binding activity, % value.
Your answer is read as %, so omit the unit and give the number.

Solved entries:
Input: Would you mind telling me what Relative binding activity, % value was observed for hu135 (antibody, V domains shown, 2B8 HC1-3/1F5 LC1-1) VH: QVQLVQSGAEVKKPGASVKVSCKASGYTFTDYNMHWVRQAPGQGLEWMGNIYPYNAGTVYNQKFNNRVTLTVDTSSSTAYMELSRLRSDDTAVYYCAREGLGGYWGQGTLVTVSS VL: EIVLTQSPATLSLSPGERATLSCKASQNIDFDGYAYMNWYQQKPGQAPRVLIYSVFNLESGIPARFSGSGSGTDFTLTISSLEPEDFAVYYCQQSHEVPYTFGQGTKLEIK ?
Output: 98

Input: hu123 (antibody, V domains shown, 2B8 HC1-2/1F5 LC1-2) VH: QVQLVQSGAEVKKPGASVKVSCKASGYTFTDYNMHWVRQAPGQGLEWMGNIYPYNGGTVYNQKFNNRVTLTVDTSSSTAYMELRSLRSDDTAVYYCAREGLGGYWGQGTLVTVSS VL: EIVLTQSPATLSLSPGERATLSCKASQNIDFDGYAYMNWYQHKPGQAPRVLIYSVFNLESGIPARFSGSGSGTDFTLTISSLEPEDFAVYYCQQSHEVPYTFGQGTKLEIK ?
Output: 96

Kindly review the next binder as well.
Input: Returns the measured Relative binding activity, % for the input binder. Input: hu89 (antibody, V domains shown, 1F5 HC-5/3E5 LC-1) VH: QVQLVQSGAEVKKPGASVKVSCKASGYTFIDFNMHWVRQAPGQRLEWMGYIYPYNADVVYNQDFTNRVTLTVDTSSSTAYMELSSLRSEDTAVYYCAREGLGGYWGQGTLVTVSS VL: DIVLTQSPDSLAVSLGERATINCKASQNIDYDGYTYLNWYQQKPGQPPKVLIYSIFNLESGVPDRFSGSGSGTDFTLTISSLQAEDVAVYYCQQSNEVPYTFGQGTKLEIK
Output: 112

Source: patent US20260125454A1
